TEST DESCRIPTION: Inhibition of chymotrypsin (unknown origin)
Design: species or system Homo sapiens
Assign Ki to each entry below.
Respond with the bare value in nM.

For the molecule Nc1n[nH]c2cc(-c3nc([C@H](Cc4ccccc4)NC(=O)/C=C/c4cc(Cl)ccc4-n4cnnn4)[nH]c3Cl)ccc12 , report Ki.
660

For the molecule COC(=O)Nc1ccc(-c2c[nH]c([C@H](Cc3ccccc3)NC(=O)/C=C/c3cc(Cl)ccc3-n3cnnn3)n2)cc1 , report Ki.
1300

---

ASSAYED SYSTEM: Coagulation factor XI (Homo sapiens, UniProt P03951)
Sequence (P03951 19-387 limits assumed): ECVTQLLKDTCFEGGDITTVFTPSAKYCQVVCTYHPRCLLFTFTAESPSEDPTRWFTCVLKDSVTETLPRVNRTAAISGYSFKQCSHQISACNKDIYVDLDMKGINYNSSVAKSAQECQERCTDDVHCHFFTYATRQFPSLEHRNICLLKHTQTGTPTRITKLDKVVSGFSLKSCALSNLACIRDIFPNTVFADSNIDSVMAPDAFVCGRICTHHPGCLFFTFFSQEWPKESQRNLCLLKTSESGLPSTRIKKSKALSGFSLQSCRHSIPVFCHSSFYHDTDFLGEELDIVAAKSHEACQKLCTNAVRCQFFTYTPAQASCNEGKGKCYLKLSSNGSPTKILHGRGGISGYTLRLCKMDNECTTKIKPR
Sequence (P03951 388-625 limits assumed): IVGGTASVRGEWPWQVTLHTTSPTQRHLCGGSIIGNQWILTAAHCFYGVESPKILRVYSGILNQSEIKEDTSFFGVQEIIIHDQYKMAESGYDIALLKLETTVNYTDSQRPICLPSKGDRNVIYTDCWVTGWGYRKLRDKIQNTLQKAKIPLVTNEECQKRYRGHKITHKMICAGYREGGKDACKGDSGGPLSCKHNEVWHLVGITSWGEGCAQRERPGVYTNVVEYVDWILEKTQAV
TEST DESCRIPTION: Inhibition of human coagulation factor 11a at 25 degC
MEASURED ATTRIBUTE: Ki (nM)
Respond with the bare value in nM.

For the compound Nc1n[nH]c2cc(-c3nc([C@H](Cc4ccccc4)NC(=O)c4ccc5c(N)noc5c4)[nH]c3Cl)ccc12 , report Ki.
125

For the compound C[C@H]1CC[C@H](C(=O)N[C@@H](Cc2ccccc2)c2nc(-c3ccc4c(N)n[nH]c4c3)c(Cl)[nH]2)CC1 , report Ki.
68

For the compound Cc1ccc(C(=O)N[C@@H](Cc2ccccc2)c2nc(-c3ccc4c(N)n[nH]c4c3)c(Cl)[nH]2)c(F)c1 , report Ki.
200

For the compound COC(=O)Nc1ccc(-c2nc([C@H](Cc3ccccc3)NC(=O)NCc3cc(Cl)ccc3-n3cnnn3)[nH]c2Cl)cc1 , report Ki.
3.4

---

ASSAYED SYSTEM: Coagulation factor XI (Homo sapiens)
TEST DESCRIPTION: Inhibition of human coagulation factor 11a at 25 degC
Assign Ki to each entry below.
Respond with the bare value in nM.

For the compound NCC12CCC(C(=O)N[C@@H](Cc3ccccc3)c3nc(-c4ccc5c(N)n[nH]c5c4)c(Cl)[nH]3)(CC1)CC2 , report Ki.
1.49

For the compound NCc1ccc(C(=O)N[C@@H](Cc2ccccc2)c2nc(-c3ccc4c(N)n[nH]c4c3)c(Cl)[nH]2)c(F)c1 , report Ki.
1.03

For the compound COC(=O)Nc1ccc(-c2c[nH]c([C@H](Cc3ccccc3)NC(=O)/C=C/c3cc(Cl)ccc3-n3cnnn3)n2)cc1 , report Ki.
6.7

For the compound Cc1ccc(Cl)cc1CNC(=O)N[C@@H](Cc1ccccc1)c1nc(-c2ccc3c(N)n[nH]c3c2)c(Cl)[nH]1 , report Ki.
53

For the compound Nc1n[nH]c2cc(-c3nc([C@H](Cc4ccccc4)NC(=O)NCc4cc(Cl)ccc4-n4cncn4)[nH]c3Cl)ccc12 , report Ki.
46

For the compound Nc1n[nH]c2cc(-c3nc([C@H](Cc4ccccc4)NC(=O)NCc4cccc(Cl)c4)[nH]c3Cl)ccc12 , report Ki.
54

For the compound COc1cc(F)c(C(=O)N[C@@H](Cc2ccccc2)c2nc(-c3ccc4c(N)n[nH]c4c3)c(Cl)[nH]2)c(F)c1 , report Ki.
65

For the compound Nc1n[nH]c2cc(C(=O)N[C@@H](Cc3ccccc3)c3nc(-c4ccc5c(N)n[nH]c5c4)c(Cl)[nH]3)ccc12 , report Ki.
58

For the compound COC(=O)Nc1ccc(-c2nc([C@H](Cc3ccccc3)NC(=O)CCc3cc(Cl)ccc3-n3cnnn3)[nH]c2Cl)cc1 , report Ki.
1.9

For the compound Nc1n[nH]c2cc(-c3nc([C@H](Cc4ccccc4)NC(=O)NCc4cc(Cl)ccc4-n4cnnn4)[nH]c3Cl)ccc12 , report Ki.
1.5

For the compound COc1ccc(C(=O)N[C@@H](Cc2ccccc2)c2nc(-c3ccc4c(N)n[nH]c4c3)c(Cl)[nH]2)c(F)c1 , report Ki.
280

For the compound Nc1n[nH]c2cc(-c3nc([C@H](Cc4ccccc4)NC(=O)c4cc(Cl)ccc4F)[nH]c3Cl)ccc12 , report Ki.
530

For the compound Nc1n[nH]c2cc(-c3nc([C@H](Cc4ccccc4)NC(=O)NCc4cc(Cl)ccc4-n4cccn4)[nH]c3Cl)ccc12 , report Ki.
450

For the compound Nc1n[nH]c2cc(-c3nc([C@H](Cc4ccccc4)NC(=O)NCc4cc(Cl)ccc4F)[nH]c3Cl)ccc12 , report Ki.
31

For the compound Nc1n[nH]c2cc(-c3nc([C@H](Cc4ccccc4)NC(=O)NCc4cccc(Cl)c4F)[nH]c3Cl)ccc12 , report Ki.
57

For the compound Nc1nccc2c1CCC(C(=O)N[C@@H](Cc1ccccc1)c1nc(-c3ccc4c(N)n[nH]c4c3)c(Cl)[nH]1)C2 (single isomer, unassigned; diastereomer A) , report Ki.
2.6
